biological target: D2 receptor (Homo sapiens, UniProt P14416); test: Receptor profile, D2 agonist activity
Sequence (P14416 whole entry): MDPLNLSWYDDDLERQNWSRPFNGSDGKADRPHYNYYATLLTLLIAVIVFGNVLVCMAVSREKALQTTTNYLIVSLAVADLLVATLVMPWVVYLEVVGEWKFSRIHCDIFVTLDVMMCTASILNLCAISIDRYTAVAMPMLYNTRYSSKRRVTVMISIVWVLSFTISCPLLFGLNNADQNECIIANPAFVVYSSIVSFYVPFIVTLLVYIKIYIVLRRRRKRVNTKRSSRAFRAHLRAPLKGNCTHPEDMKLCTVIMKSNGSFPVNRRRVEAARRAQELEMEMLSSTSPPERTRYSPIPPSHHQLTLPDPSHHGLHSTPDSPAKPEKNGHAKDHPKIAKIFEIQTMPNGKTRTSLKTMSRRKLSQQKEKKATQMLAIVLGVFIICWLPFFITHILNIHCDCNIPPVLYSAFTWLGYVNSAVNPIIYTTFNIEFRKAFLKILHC
measurement.name: EC50 (µM)

smiles.text: Fc1ccc2c(c1)N=C(N1CCNCC1)c1ccccc1O2
measurement.unit: µM
reading: 0.0158

smiles.text: CN1c2ccc(Cl)cc2N=C(N2CCNCC2)c2ccccc21
measurement.unit: µM
reading: 0.0158

smiles.text: Clc1ccc2c(c1)N=C(N1CCNCC1)c1ccccc1C2
measurement.unit: µM
reading: 0.0126

smiles.text: Brc1ccc2c(c1)N=C(N1CCNCC1)c1ccccc1O2
measurement.unit: µM
reading: 0.0501

----------
test system: hyperactivity induced by amphetamine; test: Amphetamine induced hyperactivity mouse model; assay type: in vivo; details: mice, po, salts of the compounds
measurement.name: Amphetamine model (ID50 mg/kg po) (mg/kg)

molecule: CN1c2ccc(Cl)cc2N=C(N2CCNCC2)c2ccccc21
measurement.name: Amphetamine model (ID50 mg/kg po)
operator.symbol: >
reading: 10

molecule: Cc1cccc2c1Oc1ccc(F)cc1N=C2N1CCNCC1
measurement.name: Amphetamine model (ID50 mg/kg po)
operator.symbol: =
reading: 2.8

molecule: Cc1cccc2c1Oc1ccc(Cl)cc1N=C2N1CCNCC1
measurement.name: Amphetamine model (ID50 mg/kg po)
operator.symbol: >
reading: 10

molecule: Clc1ccc2c(c1)N=C(N1CCNCC1)c1ccccc1N2 [N-desmethylclozapine, reference compound]
measurement.name: Amphetamine model (ID50 mg/kg po)
operator.symbol: >
reading: 10

molecule: Clc1ccc2c(c1)N=C(N1CCNCC1)c1ccccc1C2
measurement.name: Amphetamine model (ID50 mg/kg po)
operator.symbol: =
reading: 2.8

molecule: CN1CCN(C2=Nc3cc(Cl)ccc3Nc3ccccc32)CC1 [Clozapine, clozapine, reference compound]
measurement.name: Amphetamine model (ID50 mg/kg po)
operator.symbol: =
reading: 10

Cited source for all entries: patent US20090239840A1
